Taken from patent US11530223B2.

- experimental protocol: oral pharmacokinetics (plasma, brain, CSF)
- Type: in vivo
- recorded conditions: rat, plasma, po; Sprague Dawley rats, per os 10 mg/kg, normal saline (first four compounds: 5% NMP, 5% Solutol HS, 90% normal saline); read-out: Tmax
quantity kind: Tmax (min)
Number only, in min; omit the unit.

Problem: Fill in reported Tmax for this entry: CC(C)(C)OC(=O)N1CCCC2(CCNC2=O)C1 (single isomer, unassigned) [RE-1]
Result: 15

Problem: Tell me its Tmax given CC(C)C(=O)N1CCC2(CCNC2=O)CC1 [RG-623] as the entry.
Result: 25.2

Problem: Return value of Tmax for input CC(C)C(=O)N1CCCC12CCNC2=O (centres unmarked) [RZ-405] , no commentary.
Result: 30

Problem: Please report Tmax for the following molecule: CC(C)(C)OC(=O)N1CCCCC12CCNC2=O (centres unmarked) [RG-605]
Result: 15

Problem: Check the records and state Tmax for CC(C)(C)OC(=O)N1CCCC12CCNC2=O (single isomer, unassigned) [RM-1]
Result: 15

====

- experimental protocol: IV pharmacokinetics
- Assay type: in vivo
- recorded conditions: Sprague Dawley, rat, in vivo, iv, 2 mg/kg, Sprague Dawley rats
Lab note: anything with clearance below 0.8 L/h/kg is marked Condition met; values at 0.8 L/h/kg or higher are marked Condition not met.

Problem: # strict comparison: is reported clearance < 0.8 L/h/kg? input = CC(C)(C)OC(=O)N1CCCC12CCNC2=O (single isomer, unassigned)
Result: Condition not met

Problem: Lab note: clearance threshold 0.8 L/h/kg. Does this compound come in strictly under it? CC(C)(C)OC(=O)N1CCCCC12CCNC2=O (centres unmarked)
Result: Condition not met

Problem: Say whether its clearance is strictly beneath 0.8 L/h/kg. Entry: "CC(=O)N1CCC2(CCNC2=O)CC1"
Result: Condition met

Problem: Just wondering, is clearance of CC(C)C(=O)N1CCCC12CCNC2=O (centres unmarked) below 0.8 L/h/kg?
Result: Condition met

Problem: Hello, I'm reviewing records and need to know if clearance of "O=C1NCCC12CCNCC2" is below 0.8 L/h/kg. Could you check?
Result: Condition not met

Problem: Given the entry "CC(C)C(=O)N1CCC2(CCNC2=O)CC1" , would its reported clearance be below 0.8 L/h/kg?
Result: Condition met

Problem: Below 0.8 L/h/kg on clearance? Entry O=C1NCCC12CCCNC2 (centres unmarked) [RB-1, 2,7-diazaspiro[4.5]decan-1-one]
Result: Condition not met

====

- experimental target: NMDAR2B (Homo sapiens, UniProt Q13224)
- Construct: expressed in transfected cells; host or cells: HEK cells (membrane extract)
- Sequence (Q13224 27-1484, species assumed, other chains not shown): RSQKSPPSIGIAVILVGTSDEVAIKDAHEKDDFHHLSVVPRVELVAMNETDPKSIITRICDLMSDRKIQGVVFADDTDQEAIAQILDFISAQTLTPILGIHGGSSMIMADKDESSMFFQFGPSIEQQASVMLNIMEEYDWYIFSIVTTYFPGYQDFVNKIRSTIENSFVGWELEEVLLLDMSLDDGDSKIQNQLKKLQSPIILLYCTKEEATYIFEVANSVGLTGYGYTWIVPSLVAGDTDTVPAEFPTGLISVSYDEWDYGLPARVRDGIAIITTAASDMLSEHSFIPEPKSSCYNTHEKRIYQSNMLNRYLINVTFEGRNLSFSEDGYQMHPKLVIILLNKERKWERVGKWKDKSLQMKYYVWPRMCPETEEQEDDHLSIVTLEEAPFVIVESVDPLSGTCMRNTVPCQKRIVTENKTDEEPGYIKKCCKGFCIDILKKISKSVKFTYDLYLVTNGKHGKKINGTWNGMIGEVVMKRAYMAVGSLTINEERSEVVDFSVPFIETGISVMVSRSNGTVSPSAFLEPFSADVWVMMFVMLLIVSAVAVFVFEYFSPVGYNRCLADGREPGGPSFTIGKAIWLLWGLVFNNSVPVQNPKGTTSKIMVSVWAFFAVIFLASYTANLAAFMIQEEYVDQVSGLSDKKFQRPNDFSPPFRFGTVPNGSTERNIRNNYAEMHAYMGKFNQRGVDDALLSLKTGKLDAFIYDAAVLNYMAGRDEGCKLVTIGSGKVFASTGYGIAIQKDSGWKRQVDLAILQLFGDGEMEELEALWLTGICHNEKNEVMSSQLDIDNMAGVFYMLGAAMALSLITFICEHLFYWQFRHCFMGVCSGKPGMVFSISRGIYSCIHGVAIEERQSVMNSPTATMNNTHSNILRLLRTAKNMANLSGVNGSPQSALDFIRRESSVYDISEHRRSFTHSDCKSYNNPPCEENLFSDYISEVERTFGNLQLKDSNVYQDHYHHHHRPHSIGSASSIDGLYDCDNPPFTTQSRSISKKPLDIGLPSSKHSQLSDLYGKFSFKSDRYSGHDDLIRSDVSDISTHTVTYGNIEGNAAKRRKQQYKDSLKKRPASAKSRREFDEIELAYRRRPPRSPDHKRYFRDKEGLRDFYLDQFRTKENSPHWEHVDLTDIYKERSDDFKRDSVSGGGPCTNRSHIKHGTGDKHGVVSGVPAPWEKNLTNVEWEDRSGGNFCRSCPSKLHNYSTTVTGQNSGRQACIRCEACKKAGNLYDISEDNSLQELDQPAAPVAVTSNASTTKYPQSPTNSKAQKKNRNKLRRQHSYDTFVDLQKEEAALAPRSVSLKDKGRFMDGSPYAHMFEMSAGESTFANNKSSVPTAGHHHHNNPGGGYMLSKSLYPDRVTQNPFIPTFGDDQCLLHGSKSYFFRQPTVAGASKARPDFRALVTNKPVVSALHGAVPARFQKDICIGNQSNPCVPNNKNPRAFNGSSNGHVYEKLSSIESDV
- experimental protocol: [3H]MK-801 binding in NMDAR2B expressing HEK cell membranes
- Assay type: biochemical
- recorded conditions: 50 μM glutamate
quantity kind: A: % maximal [3H]MK-801 binding relative to 1 mM glycine

Below are worked cases with known answers.
{"molecule": "O=C1NCCC12CCCNC2 (stereo not drawn) [RC-1, 2,7-diazaspiro[4.5]decan-1-one]", "result": "++ (>100%=++)"}
{"molecule": "CC(C)(C)OC(=O)N1CCCC12CCNC2=O (single isomer, unassigned)", "result": "++ (>100%=++)"}
{"molecule": "O=C1NCCC12CCCCN2 (stereo not drawn)", "result": "+ (<100%=+)"}
{"molecule": "CC(C)(C)OC(=O)N1CCCCC12CCNC2=O (stereo not drawn) [RG-605]", "result": "− (−=0)"}
{"molecule": "CC(C)C(=O)N1CCCC12CCNC2=O (stereo not drawn)", "result": "+ (<100%=+)"}
{"molecule": "CC(=O)N1CCCC12CCNC2=O (stereo not drawn) [RZ-403]", "result": "++ (>100%=++)"}
{"molecule": "CC(=O)N1CCCC12CCNC2=O (stereo not drawn) [RZ-404]", "result": "− (−=0)"}
{"molecule": "CC(C)(C)OC(=O)N1CCCCC12CCNC2=O (stereo not drawn) [RG-606]", "result": "+ (<100%=+)"}

We next turn to a different molecule, shown below.
Problem: Write down A: % maximal [3H]MK-801 binding relative to 1 mM glycine measured for item CC(C)(C)OC(=O)N1CCCC2(CCNC2=O)C1 (single isomer, unassigned)
Result: + (<100%=+)
